Quick list: growth inhibition per entry.
Test system: Listeria monocytogenes 10403S
Assay: growth inhibition relative to ceftriaxone-alone control; higher = stronger potentiation of ceftriaxone growth inhibition
Details: 10 µM; ceftriaxone 1 ug/ml; 12 h
Give the figure together with its unit, number first.

Ask: Using the record for CN(C)C/C=C/C(=O)Nc1cc2c(Nc3ccc(F)c(Cl)c3)ncnc2cc1O[C@H]1CCOC1 , report its growth inhibition.
Result: 45.4%

###

Quick list: growth inhibition per entry.
Test system: Listeria monocytogenes 10403S
Assay: growth inhibition relative to ceftriaxone-alone control; higher = stronger potentiation of ceftriaxone growth inhibition
Conditions: 10 µM; ceftriaxone 1 ug/ml; 12 h
Write down the numeric answer in % and omit the unit.

Ask: Using the record for CN(C[C@@H]1COCCO1)S(=O)(=O)Nc1ccc2ccc3ncc(-c4cnn(C)c4)cc3c(=O)c2c1 , report its growth inhibition.
Result: -22

Ask: Item: CCN(CC)Cc1ccc(Nc2nccc(-c3cnn4ncccc34)n2)cc1
Result: -11.5

Ask: Item: FC(F)(F)c1ccc(/C=C/c2nc(COc3ccc(CCCCn4ccnn4)cc3)co2)cc1
Result: 16.1

More entries:
Ask: Using the record for CC(C)n1nc(-c2cc3cc(O)ccc3[nH]2)c2c(N)ncnc21 , report its growth inhibition.
Result: 16.2

Ask: Item: COc1cccc(-n2cnc3c(N/N=C/c4ccncc4)ncnc32)c1
Result: -10.6

###

Tested on: Listeria monocytogenes 10403S
Experiment: growth inhibition relative to ceftriaxone-alone control; higher = stronger potentiation of ceftriaxone growth inhibition
Details: 10 µM; ceftriaxone 1 ug/ml; 12 h
MEASURED_PARAMETER: growth inhibition (%)
Write down the numeric answer in % and omit the unit.

Ask: Using the record for CC1=C(C(=O)Nc2ccc3[nH]nc(C)c3c2)C(c2ccc(C(F)(F)F)cc2)CC(=O)N1 (stereo unspecified) , report its growth inhibition.
Result: -1.71

More entries:
Ask: Using the record for COC(=O)Nc1nc2cc(Oc3ccc(NC(=O)Nc4ccccc4)cc3)ccc2[nH]1 , report its growth inhibition.
Result: 8.77

Ask: Item: NS(=O)(=O)c1ccc(Nc2cc(-c3ccc(O)c(F)c3)n[nH]2)cc1
Result: 10.1

Ask: Item: O=c1c(O)c(-c2ccc(O)c(O)c2)oc2cc(O)cc(O)c12 [Quercetin (Sophoretin)]
Result: 20.4

Ask: Item: Cn1c(-c2nonc2N)nc2cnccc21
Result: -5.76

###

System: Listeria monocytogenes 10403S;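 further: End-point A600 read in BHI broth at 37 °C with 2% DMSO, inhibition computed as (1 − OD with compound plus ceftriaxone ÷ OD with ceftriaxone only) × 100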
Experiment: growth inhibition relative to ceftriaxone-alone control; higher = stronger potentiation of ceftriaxone growth inhibition
Conditions: 10 µM; ceftriaxone 1 ug/ml; 12 h
growth inhibition vs 20%: at or above is Criterion met, below is Criterion not met.

Ask: Does growth inhibition meet or surpass 20% for COc1ccc(-c2coc3ncnc(N)c23)cc1 ?
Result: Criterion not met

Ask: Item: Cc1[nH]c(/C=C2\C(=O)Nc3ccccc32)c(C)c1CCC(=O)O
Result: Criterion met

Ask: Item: NS(=O)(=O)c1ccc(N/N=C2\C(=O)Nc3ccc(C(=O)NCCCn4ccnc4)cc32)cc1
Result: Criterion not met

Ask: Item: CCCS(=O)(=O)Nc1ccc(F)c(C(=O)c2c[nH]c3ncc(-c4ccc(Cl)cc4)cc23)c1F
Result: Criterion not met

Ask: Item: CC[C@H](Nc1ncnc2[nH]cnc12)c1nc2cccc(F)c2c(=O)n1-c1ccccc1
Result: Criterion met

Ask: Item: CC1=C(C(=O)Nc2cc(Cl)c3[nH]ncc3c2)C(c2ccc(C(F)(F)F)cc2)CC(=O)N1 (centres undefined)
Result: Criterion not met

Ask: Item: CCN1CCN(Cc2ccc(-c3cc4c(N[C@H](C)c5ccccc5)ncnc4[nH]3)cc2)CC1
Result: Criterion met

Ask: Item: O=c1sn(-c2cccc3ccccc23)c(=O)n1Cc1ccccc1
Result: Criterion met

Proceed to the following item.
Ask: Does growth inhibition meet or surpass 20% for Clc1ccc(Nc2nnc(Cc3ccncc3)c3ccccc23)cc1 [Vatalinib 2HCl (PTK787)] ?
Result: Criterion met
